- target_system: Short transient receptor potential channel 6 (Mus musculus) (UniProt Q61143)
- Sequence (Q61143 whole entry, looked up): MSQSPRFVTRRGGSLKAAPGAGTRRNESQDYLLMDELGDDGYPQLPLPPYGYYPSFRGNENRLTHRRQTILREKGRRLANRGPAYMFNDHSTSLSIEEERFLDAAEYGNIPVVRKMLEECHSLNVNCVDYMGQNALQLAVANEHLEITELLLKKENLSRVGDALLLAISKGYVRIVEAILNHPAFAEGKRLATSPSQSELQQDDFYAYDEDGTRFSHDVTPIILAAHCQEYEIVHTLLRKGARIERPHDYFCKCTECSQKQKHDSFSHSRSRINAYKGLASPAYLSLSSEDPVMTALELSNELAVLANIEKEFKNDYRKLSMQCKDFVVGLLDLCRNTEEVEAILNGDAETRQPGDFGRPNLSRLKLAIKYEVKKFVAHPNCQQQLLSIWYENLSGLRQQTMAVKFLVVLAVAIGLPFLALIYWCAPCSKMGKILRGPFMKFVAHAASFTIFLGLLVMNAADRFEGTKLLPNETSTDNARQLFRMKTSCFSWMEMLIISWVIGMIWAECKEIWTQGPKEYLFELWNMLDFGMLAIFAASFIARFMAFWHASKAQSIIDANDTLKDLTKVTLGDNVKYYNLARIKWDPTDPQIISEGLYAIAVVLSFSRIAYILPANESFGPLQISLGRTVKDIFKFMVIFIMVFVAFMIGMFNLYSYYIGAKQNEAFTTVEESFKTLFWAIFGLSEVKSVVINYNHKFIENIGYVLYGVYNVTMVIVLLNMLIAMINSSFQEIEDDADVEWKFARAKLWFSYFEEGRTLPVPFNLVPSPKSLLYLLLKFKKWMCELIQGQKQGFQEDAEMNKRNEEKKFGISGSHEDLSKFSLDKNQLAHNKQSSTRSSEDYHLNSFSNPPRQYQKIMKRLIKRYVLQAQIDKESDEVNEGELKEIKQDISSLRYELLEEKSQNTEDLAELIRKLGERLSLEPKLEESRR
- method_description: TRPC6 opening by TRPC4 activator hits – cell-based, HEK293, membrane potential dye, duplicate, selectivity assay for TRPC4 activator project, confirmation (AID 434950)
- condition_set: HEK293 TRPC6, membrane potential fluorescence, at 10 µM; activation
The source made the active and inactive calls.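 The calls were made as follows: active = membrane potential signal rise above negative control mean plus 3 SD in both duplicates, also active in the earlier TRPC4 screen; inactive = the rest.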
experimental_endpoint: outcome

O=C(O)CCC(=O)N1CCN(c2nc3ccccc3s2)CC1 = inactive
CN(C)CCCn1c(=O)n(CCc2ccccc2)c(=O)c2c3c(sc21)CCCCC3 = inactive
COc1cccc(O)c1CN1CCCC(C(=O)c2cccc(C(F)(F)F)c2)C1 (stereo not drawn) = inactive

###

- target_system: Short transient receptor potential channel 4 (Mus musculus) (UniProt Q9QUQ5)
- Sequence (Q9QUQ5 whole entry, looked up): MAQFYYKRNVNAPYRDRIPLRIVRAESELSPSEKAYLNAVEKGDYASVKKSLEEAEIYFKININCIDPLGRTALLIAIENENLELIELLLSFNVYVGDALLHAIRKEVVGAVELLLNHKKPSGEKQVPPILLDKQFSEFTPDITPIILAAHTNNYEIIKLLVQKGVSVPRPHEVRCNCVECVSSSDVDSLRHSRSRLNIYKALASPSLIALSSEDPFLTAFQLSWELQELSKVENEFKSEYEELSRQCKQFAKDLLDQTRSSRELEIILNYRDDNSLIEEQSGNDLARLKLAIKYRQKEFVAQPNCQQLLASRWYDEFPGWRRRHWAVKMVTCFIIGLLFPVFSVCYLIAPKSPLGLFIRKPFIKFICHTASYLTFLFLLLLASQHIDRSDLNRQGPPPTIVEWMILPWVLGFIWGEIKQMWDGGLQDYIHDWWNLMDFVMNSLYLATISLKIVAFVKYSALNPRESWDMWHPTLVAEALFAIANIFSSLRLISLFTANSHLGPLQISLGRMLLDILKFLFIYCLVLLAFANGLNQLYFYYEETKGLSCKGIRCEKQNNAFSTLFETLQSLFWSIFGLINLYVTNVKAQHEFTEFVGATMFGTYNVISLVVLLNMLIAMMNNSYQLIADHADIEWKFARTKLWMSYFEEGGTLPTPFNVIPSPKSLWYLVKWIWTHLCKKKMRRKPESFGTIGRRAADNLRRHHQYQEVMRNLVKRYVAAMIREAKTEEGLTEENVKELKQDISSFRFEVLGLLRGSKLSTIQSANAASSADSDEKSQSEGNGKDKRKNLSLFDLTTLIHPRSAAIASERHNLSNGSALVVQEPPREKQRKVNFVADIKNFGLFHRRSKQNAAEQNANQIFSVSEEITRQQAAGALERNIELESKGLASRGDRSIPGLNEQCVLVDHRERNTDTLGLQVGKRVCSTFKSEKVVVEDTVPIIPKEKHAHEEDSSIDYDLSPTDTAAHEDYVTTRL
- method_description: blockers of DAMGO-evoked TRPC4 calcium flux – cell-based, Fluo4, HEK293 TRPC4beta/mu-opioid, confirmation (AID 2636)
- condition_set: at 10 µM
The source made the active and inactive calls.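 The calls were made as follows: active = calcium signal cut by more than 3 SD below the full-agonist control yet still positive, in both repeats and the earlier primary screen; inactive = the rest.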
Lab note: assign the record to one of active, inactive

Solved cases (3 shown):
O=C(Nc1ccc([N+](=O)[O-])cn1)C1CCCCC1 = inactive
CC(C)=CCN1CCN(Cc2cccc3nonc23)CC1CCO (centres undefined) = active
CCn1c2ccc(F)cc2c2nnc(NN)nc21 = inactive

Moving on to another compound below.
Task: GET /call?item= `Cc1oc(-c2cccc(F)c2)nc1CN(Cc1ccccc1)C[C@@H]1CCC(=O)N1` returns the recorded outcome of this test.
Output: inactive

###

- Tested on: TRPC4 (mouse), co-expressed with 5HT1a in HEK293
- method_description: enhancement of serotonin-evoked TRPC4 response – cell-based, second counter screen, HEK293 TRPC4/5HT1a, Fluo-4, counter-screen for TRPC4 potentiator project, confirmation (AID 434979)
- condition_set: Fluo-4 calcium flux, at 10 µM, serotonin added at its EC20 dose
Active and inactive are the calls of the source.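 Rule for the calls: active = signal rise over 3 SD above mean of control wells given weak agonist, in both repeats and first screen; inactive = the rest.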
Classes to choose from: active, inactive

Solved entries (count: 4):
Cc1c(N2C(=O)/C(=C/c3ccccc3)SC2=S)c(=O)n(-c2ccccc2)n1C = inactive
Cc1ccc(-c2csc3ncnc(NCCN4CCOCC4)c23)cc1 = inactive
CCOc1ccc(CN2CCCC(CNC(=O)c3ccc(F)cc3)C2)cc1CO (stereo unspecified) = inactive
CCOC(=O)C1(CCc2ccccc2)CCN(Cc2ccccn2)CC1 = inactive

Task: Recorded call for `Cc1cccc(-n2nc(C)c3c(C(=O)O)cc(-c4cccs4)nc32)c1` ?
Output: inactive

Task: So what was the verdict on `NC(=O)c1ccc(N2CCN(c3ncc(C(F)(F)F)cc3Cl)CC2)cc1` in this test?
Output: active

###

- target_system: Short transient receptor potential channel 6 (Mus musculus) (UniProt Q61143)
- method_description: TRPC6 blockade by TRPC4 inhibitor hits – cell-based, HEK293, membrane potential dye, duplicate, selectivity assay for TRPC4 inhibitor project, confirmation (AID 434948)
- condition_set: HEK293 TRPC6, membrane potential dye fluorescence, at 10 µM, stimulated with maximal-effect acetylcholine
Calls of active or inactive are those of the source.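 Rule for the calls: active = active in primary screen and both duplicates, each dropping signal beyond three positive-control SD with fluorescence still positive; inactive = the rest.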
Could you please pick one outcome from this set? active, inactive

Sample answers from the record:
O=C1Nc2cc(C(=O)NCCCN3CCOCC3)ccc2S/C1=C/c1ccccc1F = inactive
CN(C)CCOc1cc(Cl)cc(Cl)c1 = inactive
CCOC(=O)c1c(NC(=O)COC(=O)CCOc2ccc(OCC)cc2)sc(C(=O)N(C)C)c1C = inactive

Kindly consider the entry below.
Task: How did this test come out for `Nc1c2c(nc3ccccc13)CCC2` ?
Output: active
